# Test system: 624824-186-R-J2-PDC multicell spheroids, viability
# assay.method.text: Anticancer human tumor 624824-186-R-J2-PDC patient-derived colon adenocarcinoma cell line growth inhibition [PI3K]
# setup.conditions: second compound 10 µM; first compound 0.316 µM; stronger effect = lower value
Please go through the items and note down their viability, T/C.
Numbers only, in %.

Worked examples follow.
CCN1CCN(Cc2ccc(Nc3ncc(F)c(-c4cc(F)c5nc(C)n(C(C)C)c5c4)n3)nc2)CC1 + CC(Nc1ncnc2nc[nH]c12)c1cc2cccc(Cl)c2c(=O)n1-c1ccccc1 :: 91.2
C#Cc1c(F)ccc2cc(O)cc(-c3ncc4c(N5CC6CCC(C5)N6)nc(OCC56CCCN5CC(F)C6)nc4c3F)c12 (stereo not drawn) + CC(Nc1ncnc2nc[nH]c12)c1cc2cccc(Cl)c2c(=O)n1-c1ccccc1 :: 91.4

For every listed record, write down its viability, T/C.
1. Cn1ncc(Cl)c1-c1cc(C(=O)NC(CN)Cc2cccc(F)c2)sc1Cl (stereo not drawn) + CC(Nc1ncnc2nc[nH]c12)c1cc2cccc(Cl)c2c(=O)n1-c1ccccc1
2. CC(C)NCC(C(=O)N1CCN(c2ncnc3c2C(C)CC3O)CC1)c1ccc(Cl)cc1 (stereo not drawn) + CC(Nc1ncnc2nc[nH]c12)c1cc2cccc(Cl)c2c(=O)n1-c1ccccc1
3. C[C@@H](NC(=O)c1ncnc(N)c1Cl)c1ncc(C(=O)Nc2cc(C(F)(F)F)c(Cl)cn2)s1 + CC(Nc1ncnc2nc[nH]c12)c1cc2cccc(Cl)c2c(=O)n1-c1ccccc1
4. CCCS(=O)(=O)Nc1ccc(F)c(C(=O)c2c[nH]c3ncc(-c4ccc(Cl)cc4)cc23)c1F + Cc1nc(NC(=O)N2CCCC2C(N)=O)sc1-c1ccnc(C(C)(C)C(F)(F)F)c1
5. CCN1CCN(Cc2ccc(Nc3ncc(F)c(-c4cc(F)c5nc(C)n(C(C)C)c5c4)n3)nc2)CC1 + Cc1nc(NC(=O)N2CCCC2C(N)=O)sc1-c1ccnc(C(C)(C)C(F)(F)F)c1

Response line:
[89.7, 103, 99.9, 49.9, 65.2]

Prompt line: Record request: viability, T/C value, item CC(Cn1ccc(-c2ccc(C#N)c(Cl)c2)n1)NC(=O)c1cc(C(C)O)[nH]n1 (stereo not drawn) + Cc1nc(NC(=O)N2CCCC2C(N)=O)sc1-c1ccnc(C(C)(C)C(F)(F)F)c1
Response line: 74.8

* * *

Please go through the items and note down their viability, T/C.
# Test system: 624824-186-R-J2-PDC multicell spheroids, viability
# assay.method.text: Anticancer human tumor 624824-186-R-J2-PDC cell line growth inhibition [PI3K];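 note: spheroids exposed to agents for 7 days before viability read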;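 for viability, T/C: 100% = DMSO vehicle treated spheroids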
# setup.conditions: second compound 0.1 µM; first compound 3.16 µM; stronger effect = lower value
# Text: Combinatorial screen of targeted agents with the PI3K inhibitors inavolisib, alpelisib, duvelisib, and copanlisib in multi-cell type tumor spheroids A high-throughput screen of multi-cell type tumor spheroids was designed to identify active combinations of targeted small molecules and PI3K pathway inhibitors. […] Compounds. […] If the clinical Cmax for an agent had not been determined, the highest concentration tested was 10 microM. […]

C#Cc1c(F)ccc2cc(O)cc(-c3ncc4c(N5CC6CCC(C5)N6)nc(OCC56CCCN5CC(F)C6)nc4c3F)c12 (centres undefined) + CC(Nc1ncnc2nc[nH]c12)c1cc2cccc(Cl)c2c(=O)n1-c1ccccc1 :: 77.9%
C=CC(=O)N1CCN(c2nc(=O)n(-c3c(C)ccnc3C(C)C)c3nc(-c4c(O)cccc4F)c(F)cc23)C(C)C1 (centres undefined) + CC(Nc1ncnc2nc[nH]c12)c1cc2cccc(Cl)c2c(=O)n1-c1ccccc1 :: 78.1%
CNC(=O)c1ccc(N2C(=S)N(c3ccc(C#N)c(C(F)(F)F)c3)C(=O)C2(C)C)cc1F + COc1c(OCCCN2CCOCC2)ccc2c3n(c(=NC(=O)c4cnc(N)nc4)nc12)CCN3 :: 79.9%

Attention now turns to another entry.
Prompt line: Please state recorded viability, T/C (tested on 624824-186-R-J2-PDC multicell spheroids, viability) of C=CC(=O)N1CCN(c2nc(=O)n(-c3c(C)ccnc3C(C)C)c3nc(-c4c(O)cccc4F)c(F)cc23)C(C)C1 (centres undefined) + CC(Nc1ccc2c(c1)OCCn1cc(N3C(=O)OCC3C(F)F)nc1-2)C(N)=O
Response line: 81.2%

* * *

# Test system: 624824-186-R-J2-PDC multicell spheroids, viability
# assay.method.text: Anticancer human tumor 624824-186-R-J2-PDC cell line growth inhibition [PI3K];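 note: spheroids exposed to agents for 7 days before viability read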;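 for viability, T/C: 100% = DMSO vehicle treated spheroids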
# setup.conditions: second compound 0.1 µM; first compound 0.316 µM; stronger effect = lower value
experimental.endpoint: viability, T/C (%)
One number for each entry, in %.

CCN1CCN(Cc2ccc(Nc3ncc(F)c(-c4cc(F)c5nc(C)n(C(C)C)c5c4)n3)nc2)CC1 + CC(Nc1ccc2c(c1)OCCn1cc(N3C(=O)OCC3C(F)F)nc1-2)C(N)=O :: 89.4
C=CC(=O)N1CCN(c2nc(=O)n(-c3c(C)ccnc3C(C)C)c3nc(-c4c(O)cccc4F)c(F)cc23)C(C)C1 (centres undefined) + CC(Nc1ccc2c(c1)OCCn1cc(N3C(=O)OCC3C(F)F)nc1-2)C(N)=O :: 106
C=CC(=O)N1CCN(c2nc(=O)n(-c3c(C)ccnc3C(C)C)c3nc(-c4c(O)cccc4F)c(F)cc23)C(C)C1 (centres undefined) + CC(Nc1ncnc2nc[nH]c12)c1cc2cccc(Cl)c2c(=O)n1-c1ccccc1 :: 82

Prompt line: Record request: viability, T/C value, item CC(C)NCC(C(=O)N1CCN(c2ncnc3c2C(C)CC3O)CC1)c1ccc(Cl)cc1 (centres undefined) + CC(Nc1ccc2c(c1)OCCn1cc(N3C(=O)OCC3C(F)F)nc1-2)C(N)=O
Response line: 68

* * *

# Tested on: 624824-186-R-J2-PDC multicell spheroids, viability
# assay.method.text: Anticancer human tumor 624824-186-R-J2-PDC cell line growth inhibition [PI3K];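 note: spheroids exposed to agents for 7 days before viability read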
# setup.conditions: curve of first compound; second compound 0.316 µM
pIC50: −log10 of the molar value.
experimental.endpoint: pIC50

Worked examples follow.
CCCS(=O)(=O)Nc1ccc(F)c(C(=O)c2c[nH]c3ncc(-c4ccc(Cl)cc4)cc23)c1F + CC(Nc1ccc2c(c1)OCCn1cc(N3C(=O)OCC3C(F)F)nc1-2)C(N)=O :: 5.33
CCN1CCN(Cc2ccc(Nc3ncc(F)c(-c4cc(F)c5nc(C)n(C(C)C)c5c4)n3)nc2)CC1 + CC(Nc1ncnc2nc[nH]c12)c1cc2cccc(Cl)c2c(=O)n1-c1ccccc1 :: < 6.00
C[C@@H](NC(=O)c1ncnc(N)c1Cl)c1ncc(C(=O)Nc2cc(C(F)(F)F)c(Cl)cn2)s1 + CC(Nc1ncnc2nc[nH]c12)c1cc2cccc(Cl)c2c(=O)n1-c1ccccc1 :: < 5.00
CC1(C)CCC(CN2CCN(c3ccc(C(=O)NS(=O)(=O)c4ccc(NCC5CCOCC5)c([N+](=O)[O-])c4)c(Oc4cnc5[nH]ccc5c4)c3)CC2)=C(c2ccc(Cl)cc2)C1 + CC(Nc1ccc2c(c1)OCCn1cc(N3C(=O)OCC3C(F)F)nc1-2)C(N)=O :: < 5.00
CC1(C)CCC(Nc2ncc(C(F)(F)F)c(-c3c[nH]c4c(P(C)(C)=O)c(C#N)ccc34)n2)CN1 (stereo unspecified) + CC(Nc1ncnc2nc[nH]c12)c1cc2cccc(Cl)c2c(=O)n1-c1ccccc1 :: 5.50

Attention now turns to another entry.
Prompt line: Record request: pIC50 value, item CC1(C)CCC(CN2CCN(c3ccc(C(=O)NS(=O)(=O)c4ccc(NCC5CCOCC5)c([N+](=O)[O-])c4)c(Oc4cnc5[nH]ccc5c4)c3)CC2)=C(c2ccc(Cl)cc2)C1 + CC(Nc1ncnc2nc[nH]c12)c1cc2cccc(Cl)c2c(=O)n1-c1ccccc1
Response line: < 5.00

* * *

# Test system: 624824-186-R-J2-PDC multicell spheroids, viability
# assay.method.text: Anticancer human tumor 624824-186-R-J2-PDC cell line growth inhibition [PI3K];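 note: spheroids exposed to agents for 7 days before viability read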;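 for viability, T/C: 100% = DMSO vehicle treated spheroids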
# setup.conditions: second compound 0.0316 µM; first compound 0.1 µM; stronger effect = lower value
experimental.endpoint: viability, T/C (%)
Give bare numbers, in %.

Worked examples follow.
Cn1ncnc1[C@H]1c2n[nH]c(=O)c3cc(F)cc(c23)N[C@@H]1c1ccc(F)cc1 + CC(Nc1ccc2c(c1)OCCn1cc(N3C(=O)OCC3C(F)F)nc1-2)C(N)=O :: 89.5
C[C@@H](NC(=O)c1ncnc(N)c1Cl)c1ncc(C(=O)Nc2cc(C(F)(F)F)c(Cl)cn2)s1 + CC(Nc1ccc2c(c1)OCCn1cc(N3C(=O)OCC3C(F)F)nc1-2)C(N)=O :: 90.5
CC1(C)CCC(CN2CCN(c3ccc(C(=O)NS(=O)(=O)c4ccc(NCC5CCOCC5)c([N+](=O)[O-])c4)c(Oc4cnc5[nH]ccc5c4)c3)CC2)=C(c2ccc(Cl)cc2)C1 + CC(Nc1ccc2c(c1)OCCn1cc(N3C(=O)OCC3C(F)F)nc1-2)C(N)=O :: 90.5
CC(C)NCC(C(=O)N1CCN(c2ncnc3c2C(C)CC3O)CC1)c1ccc(Cl)cc1 (configuration not stated) + CC(Nc1ncnc2nc[nH]c12)c1cc2cccc(Cl)c2c(=O)n1-c1ccccc1 :: 87.8
C=CC(=O)N1CCN(c2nc(=O)n(-c3c(C)ccnc3C(C)C)c3nc(-c4c(O)cccc4F)c(F)cc23)C(C)C1 (configuration not stated) + CC(Nc1ccc2c(c1)OCCn1cc(N3C(=O)OCC3C(F)F)nc1-2)C(N)=O :: 92.3
CC(C)n1nc(-c2ccc3oc(N)nc3c2)c2c(N)ncnc21 + CC(Nc1ccc2c(c1)OCCn1cc(N3C(=O)OCC3C(F)F)nc1-2)C(N)=O :: 90.4

Attention now turns to another entry.
Prompt line: Please state recorded viability, T/C (tested on 624824-186-R-J2-PDC multicell spheroids, viability) of CC(Cn1ccc(-c2ccc(C#N)c(Cl)c2)n1)NC(=O)c1cc(C(C)O)[nH]n1 (configuration not stated) + CC(Nc1ncnc2nc[nH]c12)c1cc2cccc(Cl)c2c(=O)n1-c1ccccc1
Response line: 90.6
